Form field: inhibition (one value per entry).
Tested on: Human T-cell leukemia virus type I
Test: Inhibition of human recombinant HTLV1 protease at 100 uM
*1 amine or outer side, *2 acyl side, *3 side chain or, on linkers, in order; H or OH if unused. Where a SMILES comes first, the peptide text is derived from it. [ ]: non-standard residue; d: D form. The star is where a group is joined. X1 = O=C([C@@H](O)[C@H](Cc1ccccc1)N[*:1])[*:2]; Thz(5,5-Me2) = CC1(C)SCN[C@@H]1C(=O)O; X2 = N[C@@H](Cc1ccccc1)[C@H](O)C(=O)*

molecule	bound.type	inhibition / %
CSCC[C@H](NC(=O)[C@@H](NC(=O)[C@H]1N(C(=O)[C@@H](O)[C@H](Cc2ccccc2)NC(=O)[C@H](CC(C)C)NC(=O)[C@H](CCC(N)=O)NC(C)=O)CSC1(C)C)C(C)C)C(N)=O (Ac-QL[X1][Thz(5,5-Me2)]VM-NH2)	=	54
CSCC[C@H](NC(=O)[C@@H](NC(=O)[C@@H]1CCCN1C(=O)[C@@H](O)[C@@H](N)Cc1ccccc1)C(C)C)C(=O)N[C@@H](Cc1c[nH]cn1)C(=O)O (X2-PVMH-OH)	<	30
CSCC[C@H](NC(=O)[C@@H](NC(=O)[C@@H]1CCCN1C(=O)[C@@H](O)[C@H](Cc1ccccc1)NC(=O)[C@@H](NC(C)=O)C(C)C)C(C)C)C(=O)N[C@@H](Cc1c[nH]cn1)C(=O)O (Ac-V[X1]PVMH-OH)	<	30
CC[C@H](C)[C@H](NC(C)=O)C(=O)N[C@H](C(=O)N[C@@H](Cc1ccccc1)[C@H](O)C(=O)N1CSC(C)(C)[C@H]1C(=O)N[C@H](C(=O)N[C@@H](Cc1ccccc1)C(N)=O)C(C)C)C(C)C (Ac-IV[X1][Thz(5,5-Me2)]VF-NH2)	=	84
CSCC[C@H](NC(=O)[C@@H](NC(=O)[C@@H]1CCCN1C(=O)[C@@H](O)[C@H](Cc1ccccc1)NC(=O)[C@H](NC(=O)[C@@H](CCC(N)=O)NC(C)=O)C(C)C)C(C)C)C(=O)N[C@@H](Cc1c[nH]cn1)C(=O)O	=	49
CSCC[C@H](NC(=O)[C@@H](NC(=O)[C@@H]1CCCN1C(=O)[C@@H](O)[C@H](Cc1ccccc1)NC(=O)[C@H](NC(=O)[C@H](N)CCC(N)=O)C(C)C)C(C)C)C(=O)N[C@@H](Cc1c[nH]cn1)C(=O)O	<	30
CSCC[C@H](NC(=O)[C@@H](NC(=O)[C@@H]1CCCN1C(=O)[C@@H](O)[C@H](Cc1ccccc1)NC(=O)[C@@H](NC(=O)[C@H](CCC(N)=O)NC(=O)[C@@H]1CCCN1)C(C)C)C(C)C)C(=O)N[C@@H](Cc1cnc[nH]1)C(=O)O (H-PQV[X1]PVMH-OH)	=	94
CSCC[C@H](NC(=O)[C@@H](NC(=O)[C@@H]1CCCN1C(=O)[C@@H](O)[C@H](Cc1ccccc1)NC(C)=O)C(C)C)C(=O)N[C@@H](Cc1c[nH]cn1)C(=O)O (Ac-[X1]PVMH-OH)	<	30
CC[C@H](C)[C@H](NC(=O)[C@@H](NC(=O)[C@H]1N(C(=O)[C@@H](O)[C@H](Cc2ccccc2)NC(=O)[C@@H](NC(=O)[C@@H](NC(C)=O)[C@@H](C)CC)C(C)C)CSC1(C)C)C(C)C)C(N)=O (Ac-IV[X1][Thz(5,5-Me2)]VI-NH2)	=	78
CC[C@H](C)[C@H](NC(C)=O)C(=O)N[C@H](C(=O)N[C@@H](Cc1ccccc1)[C@H](O)C(=O)N1CSC(C)(C)[C@H]1C(=O)N[C@H](C(=O)N[C@@H](CC(C)C)C(N)=O)C(C)C)C(C)C (Ac-IV[X1][Thz(5,5-Me2)]VL-NH2)	=	54

These measurements were taken from ChEMBL document CHEMBL1148015.
